The values you see were collected from patent US12492208B2.

PROTOCOL TEXT: Blood concentration measurement test
Format: in vivo, female rats (Crl:CD (SD))
DETAILS: female, Crl:CD (SD), rat, plasma, po, 100 mg/kg, read-out: Tmax
READOUT LABEL: Tmax (min)
I only need the number, in min, no unit after it.

QUERY: May I ask what Tmax has been recorded for C=CC(=O)N1C[C@H](n2c(C#CC3CC3)c(C(=O)N[C@H](C)c3ccccc3)c3c(N)ncnc32)C[C@@H]1C [free-form type I crystal of compound (I)] ?
RESULT: 45

----------
Entries annotated with measured Weight change rate, Desorption
PROTOCOL TEXT: Dynamic vapor sorption (DVS) test
Assay type: physicochemical
DETAILS: relative humidity 95%, 25° C.
I only need the number, in %, no unit after it.

# annotated cases, reported Weight change rate, Desorption shown
COMPOUND	Weight change rate, Desorption [%]
C=CC(=O)N1C[C@H](n2c(C#CC3CC3)c(C(=O)N[C@H](C)c3ccccc3)c3c(N)ncnc32)C[C@@H]1C [free-form type I crystal of compound (I)]	0.72
C=CC(=O)N1C[C@H](n2c(C#CC3CC3)c(C(=O)N[C@H](C)c3ccccc3)c3c(N)ncnc32)C[C@@H]1C [crystal of compound (I) with 1 equivalent of L-tartaric acid]	6.41

QUERY: May I ask what Weight change rate, Desorption has been recorded for C=CC(=O)N1C[C@H](n2c(C#CC3CC3)c(C(=O)N[C@H](C)c3ccccc3)c3c(N)ncnc32)C[C@@H]1C [free-form type II crystal of compound (I)] ?
RESULT: 0.12

QUERY: One more compound: C=CC(=O)N1C[C@H](n2c(C#CC3CC3)c(C(=O)N[C@H](C)c3ccccc3)c3c(N)ncnc32)C[C@@H]1C [type V crystal of compound (I) with 1 equivalent of fumaric ]
RESULT: 0.59

QUERY: One more compound: C=CC(=O)N1C[C@H](n2c(C#CC3CC3)c(C(=O)N[C@H](C)c3ccccc3)c3c(N)ncnc32)C[C@@H]1C [type II crystal of compound (I) with 1 equivalent of fumaric]
RESULT: 0.38

----------
PROTOCOL TEXT: Dynamic vapor sorption (DVS) test
Type: physicochemical
DETAILS: relative humidity 60%, 25° C.
Assign labels as follows, please: 1 (yes) for Weight change rate, Desorption below 0.4%; 0 (no) for Weight change rate, Desorption equal to or exceeding 0.4%.

Illustrative cases are given below, each with its answer.
MOLECULE	CLASSIFICATION
C=CC(=O)N1C[C@H](n2c(C#CC3CC3)c(C(=O)N[C@H](C)c3ccccc3)c3c(N)ncnc32)C[C@@H]1C [free-form type I crystal of compound (I)]	0 (no)
C=CC(=O)N1C[C@H](n2c(C#CC3CC3)c(C(=O)N[C@H](C)c3ccccc3)c3c(N)ncnc32)C[C@@H]1C [crystal of compound (I) with 1 equivalent of L-tartaric acid]	0 (no)
C=CC(=O)N1C[C@H](n2c(C#CC3CC3)c(C(=O)N[C@H](C)c3ccccc3)c3c(N)ncnc32)C[C@@H]1C [type II crystal of compound (I) with 1 equivalent of fumaric]	1 (yes)

Field: next molecule
QUERY: Just wondering, is Weight change rate, Desorption of C=CC(=O)N1C[C@H](n2c(C#CC3CC3)c(C(=O)N[C@H](C)c3ccccc3)c3c(N)ncnc32)C[C@@H]1C [free-form type II crystal of compound (I)] below 0.4%?
RESULT: 1 (yes)

----------
Entries annotated with measured Weight change rate, Desorption
PROTOCOL TEXT: Dynamic vapor sorption (DVS) test
Type: physicochemical
DETAILS: relative humidity 5%, 25° C.
Protocol: Dynamic vapor sorption tests were conducted using a type II crystal of compound (I) with1 equivalent of fumaric acid, a free-form type II crystal of the same, a free-form type I crystal of the same, a type V crystal of the same with 1 equivalent of fumaric acid, and a crystal of the same with 1 equivalent of L-tartaric acid obtained in the Examples and Reference Examples. The dynamic vapor sorption test was conducted for measurement according to the following conditions. […]
I only need the number, in %, no unit after it.

MOLECULE	READOUT LABEL	NUMERIC VALUE
C=CC(=O)N1C[C@H](n2c(C#CC3CC3)c(C(=O)N[C@H](C)c3ccccc3)c3c(N)ncnc32)C[C@@H]1C [crystal of compound (I) with 1 equivalent of L-tartaric acid]	Weight change rate, Desorption	0.54

Next molecule, Weight change rate, Desorption to be filled in.
QUERY: May I ask what Weight change rate, Desorption has been recorded for C=CC(=O)N1C[C@H](n2c(C#CC3CC3)c(C(=O)N[C@H](C)c3ccccc3)c3c(N)ncnc32)C[C@@H]1C [free-form type II crystal of compound (I)] ?
RESULT: 0.01

----------
PROTOCOL TEXT: Blood concentration measurement test
Assay type: in vivo, female rats (Crl:CD (SD))
DETAILS: rat, oral, 100 mg/kg
READOUT LABEL: Cmax (nM)
I only need the number, in nM, no unit after it.

QUERY: May I ask what Cmax has been recorded for C=CC(=O)N1C[C@H](n2c(C#CC3CC3)c(C(=O)N[C@H](C)c3ccccc3)c3c(N)ncnc32)C[C@@H]1C [free-form type II crystal of compound (I)] ?
RESULT: 1880

----------
Entries annotated with measured Weight change rate, Desorption
PROTOCOL TEXT: Dynamic vapor sorption (DVS) test
Format: physicochemical
DETAILS: relative humidity 5%, 25° C.
I only need the number, in %, no unit after it.

# annotated cases, reported Weight change rate, Desorption shown
MOLECULE	NUMERIC VALUE
C=CC(=O)N1C[C@H](n2c(C#CC3CC3)c(C(=O)N[C@H](C)c3ccccc3)c3c(N)ncnc32)C[C@@H]1C [free-form type I crystal of compound (I)]	0.01
C=CC(=O)N1C[C@H](n2c(C#CC3CC3)c(C(=O)N[C@H](C)c3ccccc3)c3c(N)ncnc32)C[C@@H]1C [type II crystal of compound (I) with 1 equivalent of fumaric]	0.04

Next molecule, Weight change rate, Desorption to be filled in.
QUERY: May I ask what Weight change rate, Desorption has been recorded for C=CC(=O)N1C[C@H](n2c(C#CC3CC3)c(C(=O)N[C@H](C)c3ccccc3)c3c(N)ncnc32)C[C@@H]1C [type V crystal of compound (I) with 1 equivalent of fumaric ] ?
RESULT: 0.06
